Test: folding enthalpy; higher = less favourable; fluorescence melt of hairpins on a sequencing array, two-state fit
Conditions: sodium 0.088 M
quantity.kind: folding enthalpy (kcal/mol)
API: value field is a number in kcal/mol; no unit string.

Here are 5 sequences together with their reported answers.
>>> meas_value("GATCTAAGTATAGATC ((((((....))))))")
-27.7
>>> meas_value("GCGATCATTCGC ((((....))))")
-26.6
>>> meas_value("GGGTGAGGAAACTCACCC (((((((....)))))))")
-33.8
>>> meas_value("GTTTAGCGAAAGCTTAAC (((.(((....))).)))")
-22.1
>>> meas_value("GCGGACGAAAGTCCCGC ((((((....))).)))")
-20.8

Task item: Sample GCAAGTGGAAACACTTAC (.(((((....))))).) — what was its folding enthalpy?
Reply: -18.7

Task item: Sample GCTGGTCGAAAGACTAGC (((.(((....))).))) — what was its folding enthalpy?
Reply: -43.2

Task item: Sample GCGGTGATCCGC ((((....)))) — what was its folding enthalpy?
Reply: -28.1

Task item: Sample GTTCACGAAAGTGCGAAC ((((((....)))..))) — what was its folding enthalpy?
Reply: -10.7

Task item: Sample GATACGCGAAAGCGGATC (((.(((....))).))) — what was its folding enthalpy?
Reply: -29.3

Task item: Sample GACCTAGGAAACCAGGTC (((((.(....).))))) — what was its folding enthalpy?
Reply: -35.3

Task item: Sample GCTCTGCGAAAGCTGGGC ((.(.((....)).).)) — what was its folding enthalpy?
Reply: -21.4

====

Experiment: melting temperature; fluorescence melt of hairpins on a sequencing array, two-state fit, raised by 9.35 °C to match UV melts
Settings: sodium 0.088 M
quantity.kind: Tm

Here are 3 sequences together with their reported answers.
>>> meas_value("GATCGGATATCCGATC ((((((....))))))")
"58.3 °C"
>>> meas_value("GGCCCTACGAAAGTAGCC (((..(((....))))))")
"31 °C"
>>> meas_value("GCTTACGCGAAAGCGAGC (((..(((....))))))")
"43 °C"

Task item: Sample GCATCCGGAAACGAATGC ((((.((....)).)))) — what was its Tm?
Reply: 45.5 °C

Task item: Sample GCAACAGGAAACTATTGC ((((.((....)).)))) — what was its Tm?
Reply: 31.8 °C

Task item: Sample GGATCCGAAAGGAGTCC ((((((....))).))) — what was its Tm?
Reply: 47.9 °C

Task item: Sample GGTTTGACGAAAGTCACC (((..(((....)))))) — what was its Tm?
Reply: 30.4 °C

====

Assay: melting temperature; fluorescence melt of hairpins on a sequencing array, two-state fit, raised by 9.35 °C to match UV melts
Settings: sodium 0.088 M
Readings of Tm for the listed sequences
API: value field is a number in °C; no unit string.

Task item: Sample GCATCTTCGAAAGAATGC (((..(((....)))))) — what was its Tm?
Reply: 33.4

Task item: Sample GATCGCTGGGGCGATC ((((((....)))))) — what was its Tm?
Reply: 69.1

Task item: Sample GCCCAACGAAAGTTAGGC (((.(((....))).))) — what was its Tm?
Reply: 48.7

Task item: Sample GGGAACGAAAGTTTGCCC ((((((....)))..))) — what was its Tm?
Reply: 31.8

Task item: Sample GGGAATGGAAACATTCCC (((((((....))))))) — what was its Tm?
Reply: 62
